Tested on: castrated male Sprague-Dawley rats
assay overview: Anabolic and androgenic activity of SARM panel in castrated male rats, sc 1 mg/d for 14 d
Format: in vivo, rat
measurement context: 1 mg/d sc 14 d
Documented Ventral prostate weight across a set of compounds

- compound: "C[C@](O)(COc1ccc(F)cc1F)C(=O)Nc1ccc([N+](=O)[O-])c(C(F)(F)F)c1 [C-1]"
  Ventral prostate weight: "< 25 % of intact control"
- compound: "C[C@](O)(COc1ccc(F)c(Cl)c1)C(=O)Nc1ccc([N+](=O)[O-])c(C(F)(F)F)c1 [C-4]"
  Ventral prostate weight: "< 25 % of intact control"
- compound: "C[C@](O)(COc1cc(Cl)c(Cl)cc1Cl)C(=O)Nc1ccc([N+](=O)[O-])c(C(F)(F)F)c1 [C-22]"
  Ventral prostate weight: "< 25 % of intact control"
- compound: "C[C@](O)(COc1c(F)c(F)c(F)c(F)c1F)C(=O)Nc1ccc([N+](=O)[O-])c(C(F)(F)F)c1 [C-23]"
  Ventral prostate weight: "< 25 % of intact control"
- compound: "C[C@](O)(COc1ccc(F)cc1)C(=O)Nc1ccc([N+](=O)[O-])c(C(F)(F)F)c1 [S-1]"
  Ventral prostate weight: "< 25 % of intact control"
